Listing of entries alongside the reported IC50.
Target: recombinant BRD4 BD1 (Homo sapiens)
Construct: for recombinant BRD4 BD1 and BRD4 BD2 proteins
Assay: Competitive fluorescence-polarization (FP) binding assay, BRD4 BD1
Experimental: Fluorescence Polarization (FP) competitive binding studies were carried out using a FAM labeled fluorescent probe, see, e.g., Cpd. […] Equilibrium dissociation constants (Kd) values of the fluorescent probe to BRD4 BD1 and BD2 proteins were determined from protein saturation experiments by monitoring the total fluorescence polarization of mixtures composed with the fluorescent probe at a fixed concentration and proteins with increasing concentrations up to full saturation. […]
assay.readout: IC50

>>> measured_value("C#Cc1sc2c(c1C)C(c1ccc(Cl)cc1)=N[C@@H](C)c1nnc(C)n1-2")
"0.103 µM"
>>> measured_value("Cc1c(C#Cc2cnn(CCC(N)=O)c2)sc2c1C(c1ccc(Cl)cc1)=N[C@@H](C)c1nnc(C)n1-2")
"0.004 µM"
>>> measured_value("C#Cc1sc2c(c1C)C(c1ccc(Cl)cc1)=NCc1nnc(C)n1-2")
"0.191 µM"
>>> measured_value("Cc1c(C#Cc2cnn(C)c2)sc2c1C(c1ccc(Cl)cc1)=NCc1nnc(C)n1-2")
"0.0143 µM"
